- System: C. albicans RNA polymerase II (Candida albicans, UniProt A0A1D8PUA6+Q5A8Y5)
- Construct: RNA elongation assay on calf thymus DNA
- Sequence (A0A1D8PUA6 1-1728): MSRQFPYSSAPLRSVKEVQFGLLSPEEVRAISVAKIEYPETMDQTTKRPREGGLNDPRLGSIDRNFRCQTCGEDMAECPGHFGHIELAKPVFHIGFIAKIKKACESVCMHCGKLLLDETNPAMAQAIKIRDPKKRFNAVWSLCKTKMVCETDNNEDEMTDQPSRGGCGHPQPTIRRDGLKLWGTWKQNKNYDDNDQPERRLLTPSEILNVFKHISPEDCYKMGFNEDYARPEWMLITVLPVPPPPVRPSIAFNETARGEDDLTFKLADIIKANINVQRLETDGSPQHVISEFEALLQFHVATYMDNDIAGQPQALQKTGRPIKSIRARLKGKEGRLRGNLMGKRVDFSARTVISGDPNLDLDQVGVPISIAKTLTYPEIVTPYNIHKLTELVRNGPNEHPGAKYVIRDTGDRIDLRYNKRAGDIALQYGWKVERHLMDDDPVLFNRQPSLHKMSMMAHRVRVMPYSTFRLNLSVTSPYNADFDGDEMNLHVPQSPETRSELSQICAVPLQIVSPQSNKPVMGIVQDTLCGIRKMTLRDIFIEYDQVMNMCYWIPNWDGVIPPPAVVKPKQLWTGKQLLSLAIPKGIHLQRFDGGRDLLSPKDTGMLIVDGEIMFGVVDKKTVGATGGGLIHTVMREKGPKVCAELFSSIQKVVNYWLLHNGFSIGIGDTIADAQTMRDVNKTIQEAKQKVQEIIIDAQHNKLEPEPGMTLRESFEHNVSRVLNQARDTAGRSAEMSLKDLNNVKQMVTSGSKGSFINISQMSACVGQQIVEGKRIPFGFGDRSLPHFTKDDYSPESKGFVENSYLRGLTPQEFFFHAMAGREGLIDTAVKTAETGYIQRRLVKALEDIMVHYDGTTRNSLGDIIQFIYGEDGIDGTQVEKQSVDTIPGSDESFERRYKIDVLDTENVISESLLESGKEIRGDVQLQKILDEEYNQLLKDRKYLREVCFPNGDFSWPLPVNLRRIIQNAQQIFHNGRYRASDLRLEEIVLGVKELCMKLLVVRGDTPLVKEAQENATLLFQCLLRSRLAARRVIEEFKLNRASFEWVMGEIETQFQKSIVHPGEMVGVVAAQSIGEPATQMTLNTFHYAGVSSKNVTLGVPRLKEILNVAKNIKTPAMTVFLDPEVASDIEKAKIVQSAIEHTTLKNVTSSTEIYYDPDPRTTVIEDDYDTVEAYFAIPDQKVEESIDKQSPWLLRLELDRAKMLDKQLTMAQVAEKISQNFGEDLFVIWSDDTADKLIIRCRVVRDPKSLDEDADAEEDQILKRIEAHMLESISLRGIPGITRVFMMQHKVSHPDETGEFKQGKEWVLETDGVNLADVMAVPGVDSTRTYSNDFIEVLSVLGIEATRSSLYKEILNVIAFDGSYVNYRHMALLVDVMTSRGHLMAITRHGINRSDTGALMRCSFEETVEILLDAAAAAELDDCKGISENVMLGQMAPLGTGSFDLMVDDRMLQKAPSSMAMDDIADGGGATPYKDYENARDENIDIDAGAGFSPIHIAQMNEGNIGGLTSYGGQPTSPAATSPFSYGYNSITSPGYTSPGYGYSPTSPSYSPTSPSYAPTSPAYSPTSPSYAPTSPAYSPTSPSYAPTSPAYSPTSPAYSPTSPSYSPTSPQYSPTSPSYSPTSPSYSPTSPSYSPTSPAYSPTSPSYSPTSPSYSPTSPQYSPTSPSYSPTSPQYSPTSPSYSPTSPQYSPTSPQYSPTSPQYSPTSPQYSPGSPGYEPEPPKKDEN
- Sequence (Q5A8Y5 1-1234): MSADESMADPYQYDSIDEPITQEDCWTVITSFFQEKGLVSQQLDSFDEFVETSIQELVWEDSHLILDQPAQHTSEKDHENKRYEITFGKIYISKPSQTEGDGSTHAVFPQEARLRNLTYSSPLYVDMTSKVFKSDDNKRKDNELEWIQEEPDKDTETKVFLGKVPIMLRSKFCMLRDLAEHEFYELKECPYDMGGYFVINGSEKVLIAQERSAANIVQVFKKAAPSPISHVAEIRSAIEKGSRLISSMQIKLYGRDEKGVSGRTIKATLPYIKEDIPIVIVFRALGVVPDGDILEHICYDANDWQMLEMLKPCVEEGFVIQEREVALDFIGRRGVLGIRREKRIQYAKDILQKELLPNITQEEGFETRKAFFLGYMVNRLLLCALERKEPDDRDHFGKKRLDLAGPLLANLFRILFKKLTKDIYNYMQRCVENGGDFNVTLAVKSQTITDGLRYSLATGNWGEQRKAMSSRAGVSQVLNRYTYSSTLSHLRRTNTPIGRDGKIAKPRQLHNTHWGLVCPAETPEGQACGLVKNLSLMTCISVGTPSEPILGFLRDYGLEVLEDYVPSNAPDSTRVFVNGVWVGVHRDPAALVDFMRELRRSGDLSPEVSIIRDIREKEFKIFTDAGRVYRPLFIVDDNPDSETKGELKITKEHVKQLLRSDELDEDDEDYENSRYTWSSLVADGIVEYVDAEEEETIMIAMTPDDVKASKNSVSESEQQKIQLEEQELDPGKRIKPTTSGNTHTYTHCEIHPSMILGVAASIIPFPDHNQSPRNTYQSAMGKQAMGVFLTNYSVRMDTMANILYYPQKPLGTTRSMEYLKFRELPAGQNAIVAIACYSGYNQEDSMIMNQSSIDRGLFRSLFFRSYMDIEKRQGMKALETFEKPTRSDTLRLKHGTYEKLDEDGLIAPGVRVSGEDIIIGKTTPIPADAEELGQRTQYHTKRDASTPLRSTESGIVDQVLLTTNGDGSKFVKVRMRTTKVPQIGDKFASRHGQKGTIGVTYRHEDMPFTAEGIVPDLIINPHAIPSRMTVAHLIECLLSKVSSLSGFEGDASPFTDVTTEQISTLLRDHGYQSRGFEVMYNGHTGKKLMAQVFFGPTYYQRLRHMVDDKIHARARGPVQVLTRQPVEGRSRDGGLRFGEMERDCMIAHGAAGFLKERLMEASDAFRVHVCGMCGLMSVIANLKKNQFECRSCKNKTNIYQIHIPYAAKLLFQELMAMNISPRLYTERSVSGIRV
- Experiment Description: biochemical
- Particulars: Table 1; read-out: IC50 Candida pol II
Property Label: IC50 (µM)
Respond with the bare value in µM.

Below, each entry is followed by its recorded IC50 result.
{"Chemical Smiles": "O=C(Nc1cccc(C(F)(F)F)c1)c1ccc(O)cc1", "System": "C. albicans RNA polymerase II (Candida albicans, UniProt A0A1D8PUA6+Q5A8Y5)", "Property Label": "IC50", "Reading Unit": "µM", "Numeric Result": 27}
{"Chemical Smiles": "Oc1ccc(CCc2cccc(C(F)(F)F)c2)cc1", "System": "C. albicans RNA polymerase II (Candida albicans, UniProt A0A1D8PUA6+Q5A8Y5)", "Property Label": "IC50", "Reading Unit": "µM", "Numeric Result": 230}
{"Chemical Smiles": "Oc1ccc(C=Cc2cccc(C(F)(F)F)c2)cc1", "System": "C. albicans RNA polymerase II (Candida albicans, UniProt A0A1D8PUA6+Q5A8Y5)", "Property Label": "IC50", "Reading Unit": "µM", "Numeric Result": 70}
{"Chemical Smiles": "Oc1ccc(N=Nc2cccc(C(F)(F)F)c2)cc1", "System": "C. albicans RNA polymerase II (Candida albicans, UniProt A0A1D8PUA6+Q5A8Y5)", "Property Label": "IC50", "Reading Unit": "µM", "Numeric Result": 10}

Please look at the following compound next.
Ask: Consider the compound O=C(Nc1ccc(O)cc1)c1cccc(C(F)(F)F)c1 and give its measured IC50.
Result: 51
